System: HEK-293T
protocol: Incucyte cell viability with HEK293T; note: unitless GR value; below 1 slowed growth and below 0 cell loss
Format: toxicity, cell-based
testContext: human, 6 h, 10 µM, compound concentration 10 uM, replicate number 1
valueKind: Growth Rate
Could you keep your reply to the number by itself?

Solved cases (5 shown):
COC(=O)c1cc2c(cn1)[nH]c1ccccc12 [BETA-CCM]; 0.67
Cc1nc(Nc2cnn(C3CCNCC3)c2)nc2c1N(C)C(=O)c1cc3ccccc3cc1N2C; 0.03
CNc1nc(Nc2ccc(C(=O)N3CCOCC3)cc2OC)ncc1Cl; 0.75
CCCCC[C@H](O)/C=C/[C@H]1[C@H](O)CC(=O)[C@@H]1CCCCCCC(=O)O [ALPROSTADIL]; 0.47
CN(C(=O)c1ccccc1)c1ccc2c(c1)nc(NC(=O)c1ccc(Br)s1)n2CCC(N)=O; 0.09

## Input What value of Growth Rate has been recorded for this entry: "O=C(Cc1ccccc1[N+](=O)[O-])Nc1ccc(-c2ccc(C(O)(C(F)(F)F)C(F)(F)F)cc2F)cc1"
## Output 0.35

---

Test system: U2OS
protocol: Incucyte cell viability with U2OS; note: unitless GR value; below 1 slowed growth and below 0 cell loss
Type: toxicity, cell-based
testContext: human, 6 h, 10 µM, compound concentration 10 uM, replicate number 2
valueKind: Growth Rate

// known answers, use as guide
CO[C@H]1CC[C@H](N(c2cc(F)c(Oc3ncc(Cn4nccn4)cc3C(F)(F)F)cc2C(=O)O)C(=O)[C@H]2CC[C@H](C)CC2)CC1; 0.76
O=C1NC(=Nc2c(Cl)cccc2Cl)S/C1=C\c1ccc2nccnc2c1; 0.31
COc1cccc(-c2c(C)c(Cc3c(F)cccc3C(F)(F)F)c3n(c2=O)[C@@H]([C@@H](N)c2ccccc2)CS3)c1F; 0.4
CN1CC(=O)N(C)c2cnc(Nc3ccc(NC(=O)Nc4cccc(C(=O)O)c4)cc3)nc21; 0.73

## Input Give its Growth Rate value. Item: CCOC(=O)c1cncn1[C@H](C)c1ccccc1 [ETOMIDATE]
## Output 0.83

## Input So what's the measured Growth Rate for this one? CN(C)CCCN1c2ccccc2Sc2ccc(Cl)cc21.Cl [CHLORPROMAZINE HYDROCHLORIDE]
## Output -0.06

## Input Recorded Growth Rate for "COc1ncc2cc(C(=O)Nc3cc(C(=O)NCc4cccc(Cl)c4)ccc3Cl)c(=O)[nH]c2n1" , please?
## Output 0.67

## Input Which Growth Rate value belongs to "Cn1cc(-c2ccc3occ(-c4cccc(-c5ccncc5)c4)c3n2)cn1" ?
## Output 0.44

## Input // returns reported Growth Rate for input "Br.CO[C@H]1CC=C2CCN3CCC4=C(CC(=O)OC4)[C@]23C1"
## Output 0.78

---

Measured Growth Rate of individual entries
Test system: HEK-293T
protocol: Incucyte cell viability with HEK293T; note: unitless GR value; below 1 slowed growth and below 0 cell loss
Assay type: toxicity, cell-based
testContext: human, 18 h, 10 µM, compound concentration 10 uM, replicate number 2
// response body must contain only the number

Sample answers from the record:
CN(C)CCC[C@@]1(c2ccc(F)cc2)OCc2cc(C#N)ccc21 [ESCITALOPRAM]; 0.59
Cc1ccc(-c2c(C(=O)CF)n(CCCO)c3ncnc(N)c23)cc1; 0.85
O=C1CCC(N2Cc3cc(CNC(=O)C(F)(F)c4ccc(Cl)cc4)ccc3C2=O)C(=O)N1 (centres undefined); 1
COCCN1CCN(CCn2ccc(Nc3ncc4c(n3)-c3c(nn(C)c3-c3ccccc3)C[C@H]4C)n2)CC1; -0.32
COc1cc(CN(CCN)C(=O)N[C@@H](C)c2ccccc2)ccc1OCc1ccccc1.Cl; 0.81
CNC(=O)c1cc(C(=O)NC2CC2)cn(Cc2ccccc2)c1=O [GSK620]; 0.99
Nc1ncc2c(n1)-c1c([nH]c3ccc(C4=CCOCC4)cc13)CCC2; 0.36
CCCCCCCC/C=C\CCCCCCCC(=O)NCCO [OLEOYLETHANOLAMIDE]; 0.75

Note: attention shifts to another entry.
## Input Please give the measured Growth Rate for this compound: COc1ccc([C@@H]2Sc3ccccc3N(CCN(C)C)C(=O)[C@@H]2OC(C)=O)cc1.Cl [DILTIAZEM HYDROCHLORIDE]
## Output 0.86

---

Here, each record is paired with measured Growth Rate data.
System: HEK-293T
protocol: Incucyte cell viability with HEK293T; note: unitless GR value; below 1 slowed growth and below 0 cell loss
Format: toxicity, cell-based
testContext: human, 6 h, 10 µM, compound concentration 10 uM, replicate number 1
Provide a numeric answer; units are not to be included.

COc1cc(N2CCN(C)CC2)ccc1Nc1ncc2c(n1)N(C)c1ccccc1C(=O)N2CC(F)(F)F; -0.03
Cc1ccc2c(N)c(C(=O)NC3CCc4cc(N5CC6CCC(C5)N6)ccc4C3)sc2n1.O=CO (centres undefined); -0.55
COc1cc(C(=O)NCCOCCOCCOCCC(=O)Nc2cccc3c2C(=O)N(C2CCC(=O)NC2=O)C3=O)ccc1Nc1ncc(C(F)(F)F)c(Oc2cccc3c2C(=O)CC3)n1 (centres undefined); 0.89
CNCc1ccc(-c2cc(-c3nc(-c4ccc(S(=O)(=O)C(C)C)cc4)cnc3N)on2)cc1; -0.67
O=C(NNC(=O)c1ccc(CNS(=O)(=O)c2ccc(F)c(Cl)c2)cc1)c1ccccc1; 0.34
CCS(=O)(=O)Nc1cccc(Oc2cc(F)cc(Nc3ccc(I)cc3F)c2NS(=O)(=O)C2CC2)c1; 0.37
CN(C)C/C=C/C(=O)Nc1cccc(C(=O)Nc2ccc(Nc3nccc(-c4cccnc4)n3)cc2)c1; -0.88
CNC1(C)C2CCC(C2)C1(C)C.Cl (centres undefined) [MECAMYLAMINE HYDROCHLORIDE]; 0.95
O=C(NS(=O)(=O)N1CCC1)c1cc(C2CC2)c(OCC23CC4CC(CC(C4)C2)C3)cc1F; 0.69
O=C(O)C[C@H]1CC[C@H](c2ccc(NC(=O)c3nnc(Nc4ccc(F)c(F)c4)o3)cc2)CC1; 0.74

## Input Growth Rate for "CCc1ccc(-c2ncn(CC3(F)CCN(C)CC3)c2-c2ccnc3[nH]ccc23)nc1" ?
## Output 0

## Input Fill blank: measured Growth Rate of the compound "CC(C)Nc1ncnc2cc(OCc3cccc([S@@](C)(=N)=O)c3)c(Br)cc12" is ____.
## Output 0.65

## Input Any idea what Growth Rate was measured for "OC(c1ccc(-c2ccc(CN3CCN(Cc4ccncc4)CC3)cc2)c(F)c1)(C(F)(F)F)C(F)(F)F" ?
## Output -0.1

## Input Any idea what Growth Rate was measured for "Cc1cc(S(=O)(=O)N2CC(C)(C)c3cc(-c4ccc(C(F)(F)F)cc4)ccc32)ccc1OCC(=O)O" ?
## Output 0.72

## Input Dear colleague, I am looking for the recorded Growth Rate of the following compound: "C=C(F)C(=O)N1CCN(c2nc(OC[C@@H]3CCCN3C)nc3c2CCN(c2cccc4cccc(Cl)c24)C3)C[C@@H]1CC#N"
## Output -0.26

## Input Item "COCCN1CCN(CCn2ccc(Nc3ncc4c(n3)-c3c(nn(C)c3-c3ccccc3)C[C@H]4C)n2)CC1" has what recorded Growth Rate?
## Output -0.53

## Input So what's the measured Growth Rate for this one? "Cn1c(C(=O)N[C@@H](CO)c2ccc(C(=O)O)cc2)cc2cc(Cl)ccc21"
## Output 0.78

## Input Any idea what its Growth Rate is? The compound is "COc1cc(C(=O)NCCOCCOCCOCC(=O)N[C@H](C(=O)N2C[C@H](O)C[C@H]2C(=O)NCc2ccc(-c3scnc3C)cc2)C(C)(C)C)ccc1Nc1ncc(C(F)(F)F)c(Oc2cccc3c2C(=O)CC3)n1"
## Output 0.29

---

System: HEK-293T
protocol: Incucyte cell viability with HEK293T; note: unitless GR value; below 1 slowed growth and below 0 cell loss
Type: toxicity, cell-based
testContext: human, 12 h, 10 µM, compound concentration 10 uM, replicate number 2
Recorded Growth Rate, one value per entry.
// response body must contain only the number

CN(C)CCCN1c2ccccc2Sc2ccc(Cl)cc21.Cl [CHLORPROMAZINE HYDROCHLORIDE]; 0.52
O=C(CNCc1cc2ccccc2[nH]1)N[C@H]1CC[C@@H](c2nc3ccccc3[nH]2)CC1; 0.76
COc1cc2ncnc(Nc3cccc(O)c3)c2cc1OC; 0.71
CNC(=O)c1cccc(-c2ccc3c(N4CCOC[C@@H]4C)nc(N4CCOC[C@@H]4C)nc3n2)c1 [VISTUSERTIB]; -0.55
COc1ncc2cc(C(=O)Nc3cc(C(=O)NCc4cccc(Cl)c4)ccc3Cl)c(=O)[nH]c2n1; 0.55

## Input Please look up its Growth Rate: "Cc1cn([C@H](C)CC#N)c(=O)c2cc(Cn3nc(C(F)F)cc3Cl)nn12"
## Output 0.82

## Input Give its Growth Rate value. Item: Cc1c(N2CCCC2)nc2ccc(Br)cc2c1C(=O)NC[C@H](CCC(=O)O)c1ccccc1Cl [BAY-6672]
## Output 0.76

## Input Give the measured Growth Rate of "COc1ccccc1N1CCN(c2ncnc3c2cnn3-c2ccccc2)CC1" .
## Output 0.98

## Input Growth Rate for "CN1C(=O)Cc2ccc(-c3ccc(C[C@@H](C#N)NC(=O)[C@H]4N[C@@H]5CC[C@H]4C5)c(F)c3)cc21" ?
## Output 0.82
